measurement type: Log k'

Look up Log k' of CNCCC=C1c2ccccc2CCc2ccccc21 [NORTRIPTYLINE] and report it. 0.899

Look up Log k' of CN(C)CCCN1c2ccccc2Sc2ccccc21 [PROMAZINE] and report it. 1.252

Look up Log k' of CN(C)CCC=C1c2ccccc2COc2ccccc21 [DOXEPIN] and report it. 0.886

Look up Log k' of CN1CCC(=C2c3ccccc3C=Cc3ccccc32)CC1 [CYPROHEPTADINE] and report it. 1.43

Look up Log k' of CN(C)CCCN1c2ccccc2Sc2ccc(Cl)cc21 [CHLORPROMAZINE] and report it. 1.632

Look up Log k' of O=C(NC1CCN(CCc2c[nH]c3ccccc23)CC1)c1ccccc1 [INDORAMIN] and report it. 0.136

Look up Log k' of CN1CCN(C2=Nc3cc(Cl)ccc3Nc3ccccc32)CC1 [CLOZAPINE] and report it. 1.15
